Quick list: percentage damage caused to the plant, ECHCG per entry.
- Tested on: Echinochloa crus-galli (ECHCG)
- test description: Pre-emergence Test (Table B1)
- Assay type: in vivo
- Design: key: 5=81-100%; 4=61-80%; 3=41-60%; 2=21-40%; 1=0-20%; 0=inactive
- assay setup: 1000 g/ha, evaluated after 13 days
readout name: percentage damage caused to the plant, ECHCG

# compound, endpoint result
measured = [
    ("CCn1c(C)c(-c2cc(C(=O)OC(C)C(C)=O)ccc2F)c(=O)c(C(=O)O)c1-c1ccc(Cl)c(Cl)c1 (stereo not drawn) [Compound 10]", 0),
    ("CCC#CC(C)OC(=O)c1ccc(F)c(-c2c(C)n(CC)c(-c3ccc(Cl)c(Cl)c3)c(C(=O)O)c2=O)c1 (stereo not drawn) [Compound 11]", 0),
    ("C=CCC(C)OC(=O)c1ccc(F)c(-c2c(C)n(CC)c(-c3ccc(Cl)c(Cl)c3)c(C(=O)O)c2=O)c1 (stereo not drawn) [Compound 13]", "1 (1=0-20%)"),
    ("C=CC(C)OC(=O)c1cc(-c2c(C)n(CC)c(-c3ccc(Cl)c(Cl)c3)c(C(=O)O)c2=O)c(F)cc1Cl (stereo not drawn) [Compound 21]", "4 (4=61-80%)"),
    ("CCn1c(C)c(-c2cc(C(=O)OC(C)COC)c(Cl)cc2F)c(=O)c(C(=O)O)c1-c1ccc(Cl)c(Cl)c1 (stereo not drawn) [Compound 26]", "4 (4=61-80%)"),
    ("C#CCOC(=O)c1cc(-c2c(C)n(CC)c(-c3ccc(Cl)c(Cl)c3)c(C(=O)O)c2=O)c(F)cc1Cl [Compound 2]", 0),
    ("CCn1c(C)c(-c2cc(C(=O)OC(C)C3CC3)ccc2F)c(=O)c(C(=O)O)c1-c1ccc(Cl)c(Cl)c1 (stereo not drawn) [Compound 8]", 0),
    ("CCn1c(C)c(-c2cc(C(=O)OC3CCC3)c(Cl)cc2F)c(=O)c(C(=O)O)c1-c1ccc(Cl)c(Cl)c1 [Compound 23]", "5 (5=81-100%)"),
    ("CCOCC(C)OC(=O)c1ccc(F)c(-c2c(C)n(CC)c(-c3ccc(Cl)c(Cl)c3)c(C(=O)O)c2=O)c1 (stereo not drawn) [Compound 14]", 0),
    ("C=CCOC(=O)c1cc(-c2c(C)n(CC)c(-c3ccc(Cl)c(Cl)c3)c(C(=O)O)c2=O)c(F)cc1Cl [Compound 3]", 0),
    ("C#CCC(C)OC(=O)c1ccc(F)c(-c2c(C)n(CC)c(-c3ccc(Cl)c(Cl)c3)c(C(=O)O)c2=O)c1 (stereo not drawn) [Compound 17]", "1 (1=0-20%)"),
    ("C#CC(C)OC(=O)c1cc(-c2c(C)n(CC)c(-c3ccc(Cl)c(Cl)c3)c(C(=O)O)c2=O)c(F)cc1Cl (stereo not drawn) [Compound 20]", "3 (3=41-60%)"),
    ("C#CC(C)OC(=O)c1ccc(F)c(-c2c(C)n(CC)c(-c3ccc(Cl)c(Cl)c3)c(C(=O)O)c2=O)c1 (stereo not drawn) [Compound 12]", "3 (3=41-60%)"),
    ("CC#CC(C)OC(=O)c1ccc(F)c(-c2c(C)n(CC)c(-c3ccc(Cl)c(Cl)c3)c(C(=O)O)c2=O)c1 (stereo not drawn) [Compound 15]", 0),
    ("CCn1c(C)c(-c2cc(C(=O)OC(C)CF)ccc2F)c(=O)c(C(=O)O)c1-c1ccc(Cl)c(Cl)c1 (stereo not drawn) [Compound 9]", "1 (1=0-20%)"),
    ("CCn1c(C)c(-c2cc(C(=O)OC(C)C(F)(F)F)ccc2F)c(=O)c(C(=O)O)c1-c1ccc(Cl)c(Cl)c1 (stereo not drawn) [Compound 7]", "2 (2=21-40%)"),
    ("CCn1c(C)c(-c2cc(C(=O)OC3CCCC3)c(Cl)cc2F)c(=O)c(C(=O)O)c1-c1ccc(Cl)c(Cl)c1 [Compound 24]", "1 (1=0-20%)"),
    ("C=C(C)COC(=O)c1cc(-c2c(C)n(CC)c(-c3ccc(Cl)c(Cl)c3)c(C(=O)O)c2=O)c(F)cc1Cl [Compound 1]", "1 (1=0-20%)"),
]
